Assay name: yeast display, Sf9 membrane polyspecificity reagent, FACS + sequencing; frameworks hold sequencing errors
Endpoint label: polyreactivity (PSR sort gate)

QVQLVESGGGLVQAGGSLRLSCAASGFIFYYYAMGWYRPAPGKERELVAAISRTGGRTYYADSVKWRFTISRDNAKKTVYLQMNSLKPEDTAVYYCAADQGNRFDYWGQGTQVTVSS | high polyreactivity
QVQLVESGGGLVQAGGSLRLSSAASGSTFWFNAMGWYRQAPVKERELVAGISERGGRTYYADSVKGRFTISRDNAKNTVYLQMNRLKPEDPAVYYSNAGISPRRTTYYKYDYWGQGTQVNVSS | high polyreactivity

###

Assay name: yeast display, Sf9 membrane polyspecificity reagent, FACS + sequencing; frameworks hold sequencing errors
Endpoint label: polyreactivity (PSR sort gate)

QVQLVESGGGLVQAGGSLRLSCAASGAILYGNAMGWYRQAPGKERELVAAISYSGGRTYYADSVKGRFTISRDNAKYTVYLQMNSLKPEDTAVYYCASLHSGRVQNFDYWGQGTQVTVSS | high polyreactivity
QVQLVESGGGLVQAGGSLRLSCAASGNIFYWYAMGWYRQAPGKEREFVAAITRSGGSTSYADSVKGRFTISRDNAKNTVYLQMNSLKPEDTAVYYCNATHWVHFQEFYSWGPGTQVTVSS | low polyreactivity
QVQLVESGGGLVQAGGSLRLSCASSGRIIRRNAMGWYRQAPGKERELVASISQGGSTYYADSVKGRFTISRDNAKNTVYLQMNSLKPEDTAVYYCAATLSYYVGVRYDYWGQGTQVTVSS | high polyreactivity
QVQLLESGGGLVQAGGILRLSCSASGITFSVYDMGCYRQAPGKERELVASISSGGTSTYYADSVKGRFTISRDNAKNTVYFQMNSLKPEDTAVYYGAAYSYFNGDQYSYDYLGQGTQVTVSS | low polyreactivity
QVQLVESGGGLVQAGGSLRLSCAASGRIFYVYAMGWYRAPGKERELVASISYIGGSTYYADSVKGRFTISRDNAKNTVYLQMNSLIPEDTAVYYCATDYYGYTVSFLVASWPDDYWGQGTQVTVSS | low polyreactivity

###

Assay name: yeast display, Sf9 membrane polyspecificity reagent, FACS + sequencing; frameworks hold sequencing errors
Endpoint label: polyreactivity (PSR sort gate)

QVQLVDSGGGLVQAGGSLRLSWAASGSTLYVNAIGFYRQAPGKERELVSAISWSGGSTNYADSVKGRFTISRDNAKNTVYLQMNSQKPEDTSVYYCAVYYRRWFSRYDYWGQGTQVTVSS | low polyreactivity
QVQLVDSGGGLVQAGGSLRLSCAASGSIFHVNAMGWYRQAPGKERELVAAIRSDASTNYADSVKGRFTISRDNAKNTVYLQMNILKPEDTAVYYCNTAQLVSDEFDYSGQGTQVTVSS | low polyreactivity
QDQLVESGGGLVQAGGSLSLSCAASGRTFYDYAMGWYRQAPGKERELVAAISRSGGRTYYADSVKGRFTISRDNAKNTVYLQMNSLKPEDTAVYYCNAVRYVLGYSYDYNYWGQGTQVTVSS | high polyreactivity
QVQLVESAGGLVQAGGSLRLSCAASGFTFYRNAIGWYRQEPGTERELVAGITRSGGSTYYADSVKGRLTISRDNAKNTVYLQMNSLKPEDTAVYYCNKAFGGDKYSGTYDYWGQGTQVTVSS | high polyreactivity
QVQLVESGGGLVQAGGSLRLSCAASGLTLDYYAMGWSRQGPGKERELVAVIRGRSGSTYYADSVKGRFTISRDNAKNTDYLQMNSLKPEDTAVYYGARVTTYGDYYWGQGTQVTVSS | high polyreactivity
QVQLVESGGGLVQAGGSLRLSCAASGRTFTTYAMGWYRQAPGKERELVASISGSGGSTYFADSVKGRFTISRDNAKNTVYLQMNSLKPEDTAVYYCATADYYHGGYYYPYDDYWGQGTQVTVSS | low polyreactivity
QVQLVESGGGLVQAGGSLRLSCASSGSIGYYAMGWYRQAPGKERELVAAIDWSGGDTYYADSVKGRFTISRDNAKNTVYLQMNSLKPEDTAVYYCAADAGRYLPDCTYDYWGQGTQVTVSS | low polyreactivity
QVQLVESGGGLVQAGGSLRLSCAASGFIFTGYTMGWYRQAPGKERELVAAISYRGGSTYYSDSVKGRFTISRDNAKNTVYLQMNSLKPEDTEVYFCAAESIYFYEYDYWGQGTQVTVSS | high polyreactivity
QVQLVESGGGLVQAGGSLRLSCAASGSIFDPYAMGGYRQAPGKERELVAAISFITGGTYYADSVMGRFTISRDNAMNTVYLQMNSLKPEDTAVYYCNADYFYKGGWVWRDEYWGQGTQVTVSS | high polyreactivity
QVQLGESGGGLVQAGGSLRLTCAASGGTFKGYAMGWYRQAPGKERELVAAISWSGVRTYYADSVKGRFTISRDNAKNTVYLQMNSLKPEDTAVYYCAASWLLRMGYWGQGTQVTVSS | high polyreactivity
QDQLVESGGGLVQAGGSLRLSGDASGSTFSKYVMGWYRQAPGKERELVAAISGGDRTYYADSVKGRFTISRDNAKNTVYLQMNSLKPEDTAVYFCAAEVLKTRWSYDYWGQGTQVTVSS | high polyreactivity
QVQLQESGGGLVLAGGSLRLSSAATGSISAQAYMGWDRQAPGKEREHVAGINYGDNTNYADSVKGRFTISRDNEHSVSADEQPESGRYRCVLLRGFLELFYYYIYWGQGTQVTVSS | high polyreactivity
QVQLVESGGGLVQAGGRLRLSCAASGRIFFYYAMGWYRQAPGKERELVAAITSGGNTNYADSVKGRFTISRDNAKNTVYLQMNSLKPEDTAVYYCNKDLYADGQYNYDYWGQGTQVTVSS | low polyreactivity
QVQLVESGGGLVQAGGSLRLSCAASGFTFALYAMGWYRQAPGKEREVVASIDNGVSTNYADSVKGRFTISRDNAKNTVYLQMNSLKPEDTAVYYCAKGPGYGFYKLLSYDSWGQGTQVTVSS | low polyreactivity
QVQLVESGGGLVQAGGSLRLSCAASGRIFGIYAMGWYRQAPGKERELVSRITGGGSTNYADSVKGRFTISRDNAKNTVYLQMNSLKPEDTAVYYCAADSYLSVYDPYGYWGQGTQVTVSS | low polyreactivity
QVQLVESGGGLVQAGGSLRLSCAASGRTFSYYAMGWYRQAPGKERELVASINWSGGSTYYADSVKGRFTISRDNAKNTVYLQMNSLKPEDTAVYYCAADSWPFGYYYWGQGTQVTVSS | high polyreactivity
QVQLVESGGGLVQAGGSLRLSCAASGSTFGGYTMGWYRQAPGKERELVAAISRRGGSTYYADSVKGRFTISRDNAKNTVYLQMNSLKPEDTAVYYCAALYVYRPRTPYGYWGQGTQVTVSS | high polyreactivity
QVQLVESGGGLVQAGGSLRLSCAASGFTFRIYAMGWYRQAPGKERELVAAITSGGRTYYADSVKGRFTISRDNAKNTVYLQMNSLKPEDTAVYYCAALYFTRDRYDYWGQGTQVTVSS | high polyreactivity
QVQLVESGGGLVQAGGSLRLSCAASGSIFYYNTMAWYRQAPGKERELVAAIRQRGTSTYYADSVKGRFTISRDNAKNTVYLLMISLKPEDTAVYYCAAVTRGQSAYSYDYWGQGTKVTVSS | high polyreactivity
QVQLVESGGGLVQAGGSLRLSCAASGSTFYKYAMGWYRQAPGQVREVVASISSSGGSTYADSVKGRFTISRDNAKNTVYLQMNSLKPEDTAVYYCARVRWIVPWSGPTDDYWGQGTQVTVSS | low polyreactivity
QVQLVESGGGLVQAGGSLRLSCAASGNNFGVYAMGWYRQAPGTERELVAAIRYSTVSTYYADSVKGRFTISRDNAKNTVYLQMNSLKPEDTSVYYCAAQRRRYLPGHYYYWGQGTQVTVSS | high polyreactivity

###

Assay name: yeast display, Sf9 membrane polyspecificity reagent, FACS + sequencing; frameworks hold sequencing errors
Endpoint label: polyreactivity (PSR sort gate)

QVQLVESGGGLVQSGGSLRLSCAASGSTFDYNAMGWYRQPPGKERELVAAINSGASTYYADSVKGRFTISRDNAKNTVYLLMNSLKPEDTAVYYCAKDYLYIGDYWGQGTQVTVSS | low polyreactivity
QVQLVESGGGLVQAGGSLRLSCAASGGTFKFYAMGWYRQAPGKERELVAAISRRGGNTYYADSVKGRFTISRDNAKNTVYLQMNSLKPEDTAVYYCAVDYRSTGFGYWGQGTQVTVSS | high polyreactivity
QVQLVESGGGLVQAGGSLRLSSAASGFTLYYYTMGWYRQAPGKERELVAAITSGGDTYYADSVKGRFTISRDNAKNTVYLHMHSLKPEDTAVYYCAADYGTQYGEYTYYDYDYWGKGTQVTVSS | low polyreactivity
QVQLVESGGGLVQAGGSLRLSCAASGSIFATNTMGWYRQSPGKERELVATISSSDSTNYADSVKGRFTISRDNAKNTVYLEMNSLKPVDTAVYYCNKAYVDSTHGSYRWTYDYWGQGTQVTVSS | low polyreactivity
QVQLVESGGGLVQAGGSLRLSCAASGLTFWPYVMGWYRQAPGKERELVAAIDDTGITYYADSVKGRFTISRDNEKNTVYLQMNTLKPEDTAVYYCATDWDYYFPWIYPSDAGPEDGYCGQGTQVTVSS | low polyreactivity
QDQLVESGGGLVQAGGSLRLSCAASRSIFPLYAMGWYRQATGKEREMVAAISYSGGRTYYADSVKGRFTISRDNAKNTVYLQMNSLKPEDTAVYYCNTRQRVIDDYWGQGTQVSVSS | high polyreactivity
QVQLVESGGGLVQAGGSLRLSCAASGSIFYRYTMGWYRQAPGKERELVAAISSRGGSTYYADSVKGRFTISRDNAKNTVYLQMNSLKPEDTAVYYCAARFSYWAPSKGYGYWGQGTQVTVSS | high polyreactivity
QDQLVESGGGLVQAGGSLCLSCAASGITFRFYAMGWNRQAPGKERELVAAISWSGGRTYYADSVKGRFTISRDNAKNTVYLQMNSLKPEDTAVYYCAAEASSVPGYDYWGEGTQVTVSS | low polyreactivity
QVQLVESGGGLVQAGGSLRLSCAASGLTFAFYAMGWYRQAPGKERELVAAISGSGGSTNYADSVKGRFTISRDNAKNTVYLQMNSLKPEDTAVYYCAATYTYSWAYGYWGQGTQVTVSS | high polyreactivity
QVQLVESGGGLVQAGGSLRLSCAASGRIFVGYALGWYRQAPGKERELVAAINRSGSSTYYADSVKGRFTISRDNAKNTVYLQMNSLKPEDTAVYYCNARSGNRYGPRYDYWGQGTQVTVSS | high polyreactivity
QVQLVESGGGLVQAGGSLRLSCAASGSIFEIYAMGWYRQAPGKERELVASITWSGGSTYYADSVKGRFTISRDNAKNTVYLQMNSRKPEDTAVYYCATDKLYGRTVRMDYWGQGTQVTVSS | low polyreactivity

Reference source: the nanobody polyreactivity screen of Harvey et al. (2022)
